Counter-ions that a name gives are not always drawn.
reported-endpoint: melting point

compound	reported
CNCCC(c1cnc2ccccc2c1)c1ccc2[nH]ccc2c1 (stereo not shown)	56 to 58 °C
CNCC[C@H](c1ccccc1)c1cccc2cn[nH]c12 (as salt: TFA)	61.9 to 65.7 °C
CNCC[C@@H](c1ccccc1)c1cccc2cn[nH]c12 (as salt: TFA)	62 to 68.1 °C
CNCCC(c1ccccc1)c1ccc2[nH]nc(C)c2c1 (stereo not shown) (as salt: TFA)	64.5 to 66 °C
CNCCC(c1ccc2[nH]ccc2c1)c1ccc2[nH]ccc2c1	142 to 152 °C
CNCCC(c1ccc2cc[nH]c2c1)c1ccccn1 (stereo not shown) (as salt: HCl) (hydrate or solvate)	> 300 °C

Query block: Given the compound CNCCC(c1ccccc1)c1cccc2[nH]ncc12 (stereo not shown) (as salt: HCl) , write its reported melting point.
Result block: 130.6 to 133.1 °C

Query block: Given the compound CNCCC(c1ccc2[nH]ccc2c1)c1ccc2nccnc2c1 (stereo not shown) , write its reported melting point.
Result block: 60.3 to 62 °C

Query block: Given the compound NCCC(c1ccc2ncccc2c1)c1ccc2[nH]ccc2c1 (stereo not shown) , write its reported melting point.
Result block: 60.9 to 62.9 °C

Query block: Given the compound CNCCC(c1cccc(Cl)c1)c1ccc2cc[nH]c2c1 (stereo not shown) (as salt: HCl) , write its reported melting point.
Result block: 62 to 63 °C

# credit: patent US7803830B2
